The reported numbers originate from ChEMBL document CHEMBL5360622.

Here we list compounds with their recorded log10 of IC50 when tested on Dual specificity protein kinase CLK3 (Homo sapiens, UniProt P49761).
Sequence (P49761 whole entry): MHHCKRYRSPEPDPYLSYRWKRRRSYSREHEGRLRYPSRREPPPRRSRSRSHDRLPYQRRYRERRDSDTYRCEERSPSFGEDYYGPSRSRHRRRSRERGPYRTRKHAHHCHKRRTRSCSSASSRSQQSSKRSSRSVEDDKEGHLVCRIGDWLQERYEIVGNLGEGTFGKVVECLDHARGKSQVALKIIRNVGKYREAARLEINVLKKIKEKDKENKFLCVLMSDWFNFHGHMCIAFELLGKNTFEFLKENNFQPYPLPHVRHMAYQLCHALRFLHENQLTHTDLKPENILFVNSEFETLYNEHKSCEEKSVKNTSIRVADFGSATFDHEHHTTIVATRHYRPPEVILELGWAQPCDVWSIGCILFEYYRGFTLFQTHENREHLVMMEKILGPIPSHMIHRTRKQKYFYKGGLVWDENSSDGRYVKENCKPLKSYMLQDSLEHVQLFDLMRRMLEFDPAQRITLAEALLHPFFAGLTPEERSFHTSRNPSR
In our notation, the value equals log10 of IC50 in nM.

Prompt: Given the compound CN1CCN(c2ccc(NC3=N/C(=C\c4ccc5c(c4)OCO5)C(=O)N3)cc2)CC1 , what is its reported log10 of IC50?
Completion: 2.90

Prompt: What does the record list as log10 of IC50 for COc1ccc(/C=C2\N=C(Nc3ccc(N4CCN(C)CC4)cc3)NC2=O)cc1O ?
Completion: 2.85

Prompt: # log10 of IC50 lookup, item O=C1NC(NC23CC4CC(CC(F)(C4)C2)C3)=N/C1=C\c1ccc2ncsc2c1
Completion: 2.29

Prompt: Entry CC1(C)CNC(=O)C1NC1=N/C(=C\c2ccc3ncsc3c2)C(=O)N1 (racemic) : reported log10 of IC50 = ?
Completion: 3.65

Prompt: Entry under review: O=C1NC(N[C@@H](CO)Cc2ccccc2)=N/C1=C\c1ccc2ncsc2c1 . Reported log10 of IC50?
Completion: 2.47

Prompt: Any idea what its log10 of IC50 is? The compound is O=C1NC(NCC23CC4CC(CC(C4)C2)C3)=N/C1=C\c1ccc2ncsc2c1
Completion: 3.17

Prompt: Any idea what its log10 of IC50 is? The compound is O=C1NC(N[C@@H]2CCCOC2)=N/C1=C\c1ccc2ncsc2c1
Completion: 2.78

Prompt: Fill blank: measured log10 of IC50 of the compound O=C1NC(Nc2ccccn2)=N/C1=C\c1ccc2ncsc2c1 is ____.
Completion: 2.32

Prompt: I'd like to know its log10 of IC50. The compound in question is CC(C)(C)OC(=O)N1CCC(CNC2=N/C(=C\c3ccc4ncsc4c3)C(=O)N2)CC1
Completion: 3.94

Prompt: Any idea what its log10 of IC50 is? The compound is O=C1NC(NC2CCCCC2)=N/C1=C\c1ccc2[nH]cnc2c1
Completion: 3.28
